system_under_test: Hsp27 3D (Homo sapiens, UniProt P04792, S15D/S78D/S82D)
Construct: Sample aggregation curves of tau constructs with full-length Hsp27; made in house; host or cells: E. coli BL21 (DE3)
Sequence (P04792 whole entry S15D/S78D/S82D): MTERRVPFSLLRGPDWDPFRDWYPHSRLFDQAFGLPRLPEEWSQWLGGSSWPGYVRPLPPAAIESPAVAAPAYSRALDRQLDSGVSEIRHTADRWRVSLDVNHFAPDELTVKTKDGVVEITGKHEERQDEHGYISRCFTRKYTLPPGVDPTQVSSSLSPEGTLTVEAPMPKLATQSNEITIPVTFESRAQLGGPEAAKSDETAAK
assay_comment: ITC of optimized IPV peptide with Hsp27 3D
Format: binding
test_context: Fig. 4b, peptide (1 mM) into Hsp27 3D (100 µM), 25 °C, mean ± SEM, minimum of three independent experiments
Ends that are not written are not given here.

{"seq": "EITIPVTHE [Hsp27 IPV H]", "Kd": "> 50 µM"}
